- TARGET: cGMP-specific 3',5'-cyclic phosphodiesterase (Homo sapiens)
ASSAY METRIC: pIC50
pIC50 (log units): -log10 of the concentration in mol/L.

Query: I would be grateful if you could share the reported pIC50 for CC1(C)C(=O)Nc2nc(-c3nn(Cc4ccccc4F)c4ncc(F)cc34)nc(CNC(=O)C3CC3)c21 .
Reply: 6.24
